# Test system: Pichia kudriavzevii
# protocol.notes: Antifungal activity against Candida krusei ATCC 6258 by CLSI M27-A2 microdilution method
# Assay type: functional
measured.attribute: MIC (µg/mL)
Please respond with the number in µg/mL and leave the unit unwritten.

Return MIC measured with Pichia kudriavzevii given this compound: `Nc1nc(=O)[nH]cc1F`
4

What MIC appears in the records for this compound with Pichia kudriavzevii? `C[C@@H](c1ncncc1F)[C@](O)(Cn1cncn1)c1ccc(F)cc1F`
0.06

Pichia kudriavzevii / MIC / `C[C@@H]1[C@H](O)[C@@H](C)/C=C/C=C/C=C/C=C/C=C/C=C/C=C/[C@H](O[C@@H]2O[C@H](C)[C@@H](O)[C@H](N)[C@@H]2O)C[C@@H]2O[C@](O)(C[C@@H](O)C[C@@H](O)[C@H](O)CC[C@@H](O)C[C@@H](O)CC(=O)O[C@H]1C)C[C@H](O)[C@H]2C(=O)O` : value?
0.5

Form field: MIC recorded for CC(=O)N1CCN(c2ccc(OCC3COC(Cn4ccnc4)(c4ccc(Cl)cc4Cl)O3)cc2)CC1 (stereo unspecified) with Pichia kudriavzevii (enter value)
0.12

Lab note: need MIC for `OC(Cn1cncn1)(Cn1cncn1)c1ccc(F)cc1F` on Pichia kudriavzevii, anyone have it?
16

Please state recorded MIC (tested on Pichia kudriavzevii) of CCC(C)n1ncn(-c2ccc(N3CCN(c4ccc(OCC5COC(Cn6cncn6)(c6ccc(Cl)cc6Cl)O5)cc4)CC3)cc2)c1=O (stereo unspecified)
0.12

----------
# Tested on: Candida parapsilosis
# protocol.notes: Antifungal activity against Candida parapsilosis ATCC 22019 by AFST-EUCAST method
# Format: functional
# setup.conditions: Lodderomyces parapsilosis
Please go through the items and note down their MIC.
API: value field is a number in µg/mL; no unit string.

Report MIC for `Nc1nc(=O)[nH]cc1F` tested on Candida parapsilosis.
0.12

// fetch Candida parapsilosis MIC for `C[C@@H]1[C@H](O)[C@@H](C)/C=C/C=C/C=C/C=C/C=C/C=C/C=C/[C@H](O[C@@H]2O[C@H](C)[C@@H](O)[C@H](N)[C@@H]2O)C[C@@H]2O[C@](O)(C[C@@H](O)C[C@@H](O)[C@H](O)CC[C@@H](O)C[C@@H](O)CC(=O)O[C@H]1C)C[C@H](O)[C@H]2C(=O)O`
0.12

Query MIC on Candida parapsilosis for CCC(C)n1ncn(-c2ccc(N3CCN(c4ccc(OCC5COC(Cn6cncn6)(c6ccc(Cl)cc6Cl)O5)cc4)CC3)cc2)c1=O (stereo unspecified)
0.03

Candida parapsilosis / MIC / `C[C@@H](c1ncncc1F)[C@](O)(Cn1cncn1)c1ccc(F)cc1F` : value?
0.03

Look up MIC with Candida parapsilosis for this molecule: `OC(Cn1cncn1)(Cn1cncn1)c1ccc(F)cc1F`
1

What reported MIC corresponds to CC(=O)N1CCN(c2ccc(OCC3COC(Cn4ccnc4)(c4ccc(Cl)cc4Cl)O3)cc2)CC1 (stereo unspecified) on Candida parapsilosis?
0.01

----------
# Test system: Candida parapsilosis
# protocol.notes: Antifungal activity against Candida parapsilosis ATCC 22019 by CLSI M27-A2 microdilution method
# Type: functional
# setup.conditions: Lodderomyces parapsilosis
measured.attribute: MIC (µg/mL)
Write the number in µg/mL without appending the unit.

What value of MIC has been recorded for this entry: CCC(C)n1ncn(-c2ccc(N3CCN(c4ccc(OCC5COC(Cn6cncn6)(c6ccc(Cl)cc6Cl)O5)cc4)CC3)cc2)c1=O (stereo unspecified)
0.12

// lookup MIC for `Nc1nc(=O)[nH]cc1F`
0.12

Item under review: `C[C@@H](c1ncncc1F)[C@](O)(Cn1cncn1)c1ccc(F)cc1F` . Reported MIC?
0.03

Returns the measured MIC for the input compound. Input: CC(=O)N1CCN(c2ccc(OCC3COC(Cn4ccnc4)(c4ccc(Cl)cc4Cl)O3)cc2)CC1 (stereo unspecified)
0.03

Request the reported MIC associated with `OC(Cn1cncn1)(Cn1cncn1)c1ccc(F)cc1F`
1

Name the recorded MIC for `C[C@@H]1[C@H](O)[C@@H](C)/C=C/C=C/C=C/C=C/C=C/C=C/C=C/[C@H](O[C@@H]2O[C@H](C)[C@@H](O)[C@H](N)[C@@H]2O)C[C@@H]2O[C@](O)(C[C@@H](O)C[C@@H](O)[C@H](O)CC[C@@H](O)C[C@@H](O)CC(=O)O[C@H]1C)C[C@H](O)[C@H]2C(=O)O` .
0.25

----------
# System: Pichia kudriavzevii
# protocol.notes: Antifungal activity against Candida krusei ATCC 6258 by AFST-EUCAST method
# Type: functional
measured.attribute: MIC (µg/mL)
Report the figure in µg/mL without appending any unit label.

Please look up its MIC: `Nc1nc(=O)[nH]cc1F`
1

Which MIC is reported for this compound? CC(=O)N1CCN(c2ccc(OCC3COC(Cn4ccnc4)(c4ccc(Cl)cc4Cl)O3)cc2)CC1 (stereo unspecified)
0.06

Which value of MIC has been reported for `C[C@@H]1[C@H](O)[C@@H](C)/C=C/C=C/C=C/C=C/C=C/C=C/C=C/[C@H](O[C@@H]2O[C@H](C)[C@@H](O)[C@H](N)[C@@H]2O)C[C@@H]2O[C@](O)(C[C@@H](O)C[C@@H](O)[C@H](O)CC[C@@H](O)C[C@@H](O)CC(=O)O[C@H]1C)C[C@H](O)[C@H]2C(=O)O` in the records?
0.12

Using the record for CCC(C)n1ncn(-c2ccc(N3CCN(c4ccc(OCC5COC(Cn6cncn6)(c6ccc(Cl)cc6Cl)O5)cc4)CC3)cc2)c1=O (stereo unspecified) , report its MIC.
0.06

Fill in the blank: the reported MIC of `C[C@@H](c1ncncc1F)[C@](O)(Cn1cncn1)c1ccc(F)cc1F` is ____.
0.06

Dear colleague, I am looking for the recorded MIC of the following compound: `OC(Cn1cncn1)(Cn1cncn1)c1ccc(F)cc1F`
8
